tested on: HeLa; assay: Cytotoxicity against human HeLa cells after 72 hrs by MTT assay; type: functional, cell-based
readout_label: IC50 (µM)

structure_smiles_string=CCCCNC(=O)Nc1ccc2cc3ccc(NC(=O)NCCCC)cc3nc2c1.Cl endpoint_result=11.5
structure_smiles_string=CCNC(=O)Nc1ccc2cc3ccc(NC(=O)NCC)cc3nc2c1.Cl endpoint_result=60
structure_smiles_string=CCCNC(=O)Nc1ccc2cc3ccc(NC(=O)NCCC)cc3nc2c1.Cl endpoint_result=29.3
structure_smiles_string=CCCCCCNC(=O)Nc1ccc2cc3ccc(NC(=O)NCCCCCC)cc3nc2c1.Cl endpoint_result=3.7
structure_smiles_string=CCCCCNC(=O)Nc1ccc2cc3ccc(NC(=O)NCCCCC)cc3nc2c1.Cl endpoint_result=13.3

----------
test system: DNA; test: Binding affinity to calf thymus DNA at 4 uM by fluorescence spectrophotometric titration; type: nucleic-acid assay; conditions: Bos taurus
readout_label: K

structure_smiles_string=CCCCCCNC(=O)Nc1ccc2cc3ccc(NC(=O)NCCCCCC)cc3nc2c1.Cl endpoint_result="0.9 ×10⁵ /M"
structure_smiles_string=Nc1ccc2cc3ccc(N)cc3nc2c1 endpoint_result="7.95 ×10⁵ /M"
structure_smiles_string=CCCCNC(=O)Nc1ccc2cc3ccc(NC(=O)NCCCC)cc3nc2c1.Cl endpoint_result="2.4 ×10⁵ /M"
structure_smiles_string=CCCCCNC(=O)Nc1ccc2cc3ccc(NC(=O)NCCCCC)cc3nc2c1.Cl endpoint_result="1.7 ×10⁵ /M"
structure_smiles_string=CCNC(=O)Nc1ccc2cc3ccc(NC(=O)NCC)cc3nc2c1.Cl endpoint_result="4.2 ×10⁵ /M"
structure_smiles_string=CCCNC(=O)Nc1ccc2cc3ccc(NC(=O)NCCC)cc3nc2c1.Cl endpoint_result="3.8 ×10⁵ /M"
